System: CPAE (calf pulmonary artery endothelial cell)
assay: Inhibiting activity on cell proliferation, SRB analysis (CPAE)
Format: cell-based
runConditions: Bos taurus, Endothelial cell, 72 h; CPAE cells, 3 days with drug, SRB; read-out: IC50 (nM) CAPE
Give measured log10(IC50) for each item. Keep answers brief.
Heads up: the numbers are on a log10 scale; they represent IC50 in nM.

Enquiry: Test system CPAE (calf pulmonary artery endothelial cell); read-out log10(IC50); what value for `COc1cc(/C=C/C(=O)O[C@@H]2CC[C@]3(CO3)[C@@H]([C@@]3(C)O[C@@H]3CC=C(C)C)[C@@H]2OC)ccc1Oc1ccc(CO)cc1` ?
Return: -0.15

Enquiry: Give CPAE (calf pulmonary artery endothelial cell) log10(IC50) for `CO[C@@H]1[C@H](OC(=O)/C=C/c2ccc(Oc3ccc(CO)cc3)cc2)CC[C@]2(CO2)[C@H]1[C@@]1(C)O[C@@H]1CC=C(C)C`
Return: -0.07

Enquiry: API: value(readout=log10(IC50), system=CPAE (calf pulmonary artery endothelial cell)) for record `COc1ccc(/C=C/C(=O)O[C@@H]2CC[C@]3(CO3)[C@@H]([C@@]3(C)O[C@@H]3CC=C(C)C)[C@@H]2OC)cc1OCCO`
Return: -2.22

Enquiry: Recorded log10(IC50) for `CO[C@@H]1[C@H](OC(=O)/C=C/c2ccc(NCCO)cc2)CC[C@]2(CO2)[C@H]1[C@@]1(C)O[C@@H]1CC=C(C)C` with CPAE (calf pulmonary artery endothelial cell), please?
Return: -2.21

Enquiry: Missing value: log10(IC50), CPAE (calf pulmonary artery endothelial cell), entry `COc1ccc(/C=C/C(=O)O[C@@H]2CC[C@]3(CO3)[C@@H]([C@@]3(C)O[C@@H]3CC=C(C)C)[C@@H]2OC)cc1Oc1ccc(CO)cc1` . Fill in?
Return: -0.18

Enquiry: Short answer please: log10(IC50), CPAE (calf pulmonary artery endothelial cell), entry CO[C@@H]1[C@H](OC(=O)NC(=O)CCl)CC[C@]2(CO2)[C@H]1[C@@]1(C)O[C@@H]1CC=C(C)C [TNP-470, O-chloroacetylcarbamoylfumagillol, reference compound]
Return: -0.35

Enquiry: Reported log10(IC50) for CPAE (calf pulmonary artery endothelial cell), given `CO[C@@H]1[C@H](OC(=O)/C=C/c2ccc(OCCCO)cc2)CC[C@]2(CO2)[C@H]1[C@@]1(C)O[C@@H]1CC=C(C)C` ?
Return: -1.77

Enquiry: Please provide the recorded log10(IC50) for `CO[C@@H]1[C@H](OC(=O)/C=C/c2ccc(OCCCO)c(C#N)c2)CC[C@]2(CO2)[C@H]1[C@@]1(C)O[C@@H]1CC=C(C)C` , tested on CPAE (calf pulmonary artery endothelial cell).
Return: -1.34

Enquiry: Lab note: need log10(IC50) with CPAE (calf pulmonary artery endothelial cell) for entry `CO[C@@H]1[C@H](OC(=O)/C=C/c2ccc(OCCCCO)c(C)c2)CC[C@]2(CO2)[C@H]1[C@@]1(C)O[C@@H]1CC=C(C)C` , please look it up.
Return: -1.32

Enquiry: What measured log10(IC50) is associated with `CO[C@@H]1[C@H](OC(=O)/C=C/c2ccc(OCCCCCCO)c(C(F)(F)F)c2)CC[C@]2(CO2)[C@H]1[C@@]1(C)O[C@@H]1CC=C(C)C` on CPAE (calf pulmonary artery endothelial cell)?
Return: -0.17

Enquiry: Provide value of log10(IC50) for this record tested with CPAE (calf pulmonary artery endothelial cell): `CO[C@@H]1[C@H](OC(=O)/C=C/c2cccc(NCCO)c2)CC[C@]2(CO2)[C@H]1[C@@]1(C)O[C@@H]1CC=C(C)C`
Return: -2.15

Enquiry: # get_value(readout= log10(IC50), system= CPAE (calf pulmonary artery endothelial cell)) for `CO[C@@H]1[C@H](OC(=O)/C=C/c2ccc(OCCCCCCO)cc2)CC[C@]2(CO2)[C@H]1[C@@]1(C)O[C@@H]1CC=C(C)C`
Return: -0.91

Enquiry: # query: log10(IC50) | item `CO[C@@H]1[C@H](OC(=O)/C=C/c2ccc(OCCOCCO)cc2)CC[C@]2(CO2)[C@H]1[C@@]1(C)O[C@@H]1CC=C(C)C` | system: CPAE (calf pulmonary artery endothelial cell)
Return: -1.72

Enquiry: Value wanted: log10(IC50) (CPAE (calf pulmonary artery endothelial cell)) of entry `COc1cc(/C=C/C(=O)O[C@@H]2CC[C@]3(CO3)[C@@H]([C@@]3(C)O[C@@H]3CC=C(C)C)[C@@H]2OC)cc(OC)c1OCCO`
Return: -2.60

Enquiry: Recorded log10(IC50) for `CO[C@@H]1[C@H](OC(=O)/C=C/c2ccc(OCCCCO)cc2)CC[C@]2(CO2)[C@H]1[C@@]1(C)O[C@@H]1CC=C(C)C` with CPAE (calf pulmonary artery endothelial cell), please?
Return: -1.54

Enquiry: What reported log10(IC50) corresponds to `CO[C@@H]1[C@H](OC(=O)/C=C/c2cccc(NCCOCCO)c2)CC[C@]2(CO2)[C@H]1[C@@]1(C)O[C@@H]1CC=C(C)C` on CPAE (calf pulmonary artery endothelial cell)?
Return: -1.31

Enquiry: // fetch CPAE (calf pulmonary artery endothelial cell) log10(IC50) for `CO[C@@H]1[C@H](OC(=O)/C=C/c2ccc(Cl)c(NCCOCCO)c2)CC[C@]2(CO2)[C@H]1[C@@]1(C)O[C@@H]1CC=C(C)C`
Return: -1.35

Enquiry: CPAE (calf pulmonary artery endothelial cell) / log10(IC50) / `CO[C@@H]1[C@H](OC(=O)/C=C/c2ccc(Cl)c(NCCO)c2)CC[C@]2(CO2)[C@H]1[C@@]1(C)O[C@@H]1CC=C(C)C` : value?
Return: -2.19

Enquiry: Lab request: please report log10(IC50) under test system CPAE (calf pulmonary artery endothelial cell) for `CO[C@@H]1[C@H](OC(=O)/C=C/c2ccc(OCCCCCO)c([N+](=O)[O-])c2)CC[C@]2(CO2)[C@H]1[C@@]1(C)O[C@@H]1CC=C(C)C`
Return: -1.02

Enquiry: What value of log10(IC50) on CPAE (calf pulmonary artery endothelial cell) does `CO[C@@H]1[C@H](OC(=O)/C=C/c2ccc(OCCCCCO)cc2)CC[C@]2(CO2)[C@H]1[C@@]1(C)O[C@@H]1CC=C(C)C` have?
Return: -1.33

Enquiry: I'm curious: which log10(IC50) was measured for `CO[C@@H]1[C@H](OC(=O)/C=C/c2ccc(OCCO)cc2)CC[C@]2(CO2)[C@H]1[C@@]1(C)O[C@@H]1CC=C(C)C` tested on CPAE (calf pulmonary artery endothelial cell)?
Return: -2.60

Enquiry: Give CPAE (calf pulmonary artery endothelial cell) log10(IC50) for `COc1cc(/C=C/C(=O)O[C@@H]2CC[C@]3(CO3)[C@@H]([C@@]3(C)O[C@@H]3CC=C(C)C)[C@@H]2OC)ccc1OCCO`
Return: -2.35

Enquiry: Lab request: please report log10(IC50) under test system CPAE (calf pulmonary artery endothelial cell) for `COc1ccc(/C=C/C(=O)O[C@@H]2CC[C@]3(CO3)[C@@H]([C@@]3(C)O[C@@H]3CC=C(C)C)[C@@H]2OC)cc1OCCOCCO`
Return: -0.40

====

assay: Solubility test
Assay type: physicochemical
runConditions: ethanol, ordinary temperature
Hi there, I'd appreciate the recorded The amount of solvent to dissolve 1 g of the compounds (ml), ethanol for every entry that follows.
Write down the numeric answer in mL and omit the unit.

Enquiry: What The amount of solvent to dissolve 1 g of the compounds (ml), ethanol value was documented for this compound, COc1cc(/C=C/C(=O)O[C@@H]2CC[C@]3(CO3)[C@@H]([C@@]3(C)O[C@@H]3CC=C(C)C)[C@@H]2OC)ccc1OCCO [Example 3] ?
Return: 61

Enquiry: // lookup The amount of solvent to dissolve 1 g of the compounds (ml), ethanol for CO[C@@H]1[C@H](OC(=O)/C=C/c2ccc(NCCO)cc2)CC[C@]2(CO2)[C@H]1[C@@]1(C)O[C@@H]1CC=C(C)C [Example 5]
Return: 60

Enquiry: Fill blank: measured The amount of solvent to dissolve 1 g of the compounds (ml), ethanol of the compound COc1cc(/C=C/C(=O)O[C@@H]2CC[C@]3(CO3)[C@@H]([C@@]3(C)O[C@@H]3CC=C(C)C)[C@@H]2OC)cc(OC)c1OCCO [Example 2] is ____.
Return: 59

====

assay: Solubility test
Assay type: physicochemical
runConditions: methanol, ordinary temperature
Task for the reader: assign each of the following compounds its reported The amount of solvent to dissolve 1 g of the compounds (ml), methanol.
Respond with the bare value in mL.

Enquiry: Which value of The amount of solvent to dissolve 1 g of the compounds (ml), methanol has been reported for `COc1cc(/C=C/C(=O)O[C@@H]2CC[C@]3(CO3)[C@@H]([C@@]3(C)O[C@@H]3CC=C(C)C)[C@@H]2OC)ccc1OCCO` in the records?
Return: 45

Enquiry: If you can, please state the reported The amount of solvent to dissolve 1 g of the compounds (ml), methanol value of `CO[C@@H]1[C@H](OC(=O)/C=C/c2ccc(NCCO)cc2)CC[C@]2(CO2)[C@H]1[C@@]1(C)O[C@@H]1CC=C(C)C` .
Return: 39

Enquiry: Can you look up the measured The amount of solvent to dissolve 1 g of the compounds (ml), methanol of COc1cc(C=CC(=O)OC2CCC3(CO3)C(C3(C)OC3CC=C(C)C)C2OC)cc(OC)c1OC (stereo not drawn) [CKD-731, O-(3,4,5-trimethoxycinnamoyl)fumagillol, reference compound] for me?
Return: 350
